Cited source: the supplement of paper PMC9170038

Test system: MS2 coat protein
Assay: apparent KD of MS2 coat protein; designed switch direction (-1 OFF switch, 1 ON switch): -1; higher = weaker reporter binding
Details: input ligand: FMN 200 uM
Decide by apparent KD of MS2 coat protein: equal to or exceeding 50 nM means Condition met, less means Condition not met.

In: Dear colleague, could you confirm whether GUCAUCACACAUGGGAUCAACAUGAGGAUCACCCAUGUUGCCAAGCCGUUUGCACGUCUUAUCAUACGUUUUUCGAU [Mod-Jxj] (Eterna round: R97, puzzle: Sensor, turn-off variant 1) has apparent KD of MS2 coat protein at or above 50 nM?
Out: Condition met

In: Quick check, apparent KD of MS2 coat protein >= 50 nM? AAUUUUUAUGUAAGGAUAUAAGUUUGGAAACGGGCUUAGAAGGUACAUGAGGAUCACCCAUGUAUAAUGUGCGU [-20.6, -20.4 kcal, 32% A] (Eterna round: R97, puzzle: Brourd's mod of Exclusion 4)
Out: Condition met

In: Decide: is the reported value of apparent KD of MS2 coat protein for AGACGGUGAGGAUAUAGACGCAAUCACAUGAGGAUCACCCAUGUGACACGUGAUGGCUGGUUAGAAGGCGCGAAUC [Eternabot (L1) Solution 37] (Eterna round: R97, puzzle: Exclusion 5) equal to or greater than 50 nM?
Out: Condition not met

In: Identify whether the reported apparent KD of MS2 coat protein of the following sequence is 50 nM or greater: ACAUGUGUUGUAGGAUAUAGGAUACAUGAGGAUCACCCAUGUGGAUUCAUGUCAAAGGAAGCGUCCUAGAAGGACGGCAACAUG [Ex NG2 #24] (Eterna round: R96, puzzle: Exclusion NG 2)
Out: Condition not met

In: Identify whether the reported apparent KD of MS2 coat protein of the following sequence is 50 nM or greater: AUCAGCUCGUCAGGAUAUACAUGAGGAUCACCCAUGUGGUCAUUAGCAGCUUCGGCUGCAUUAAUGUAGAAGGGACGAGCUGAU [ENG2/8-B2] (Eterna round: R96, puzzle: Exclusion NG 2)
Out: Condition met

====

System: MS2 coat protein
Test: apparent KD of MS2 coat protein; higher = weaker reporter binding
Conditions: Eterna round: R107; input ligand: theophylline 20 uM
Task for the reader: assign each of the following sequences its reported apparent KD of MS2 coat protein.
Provide only the numeric value, understood in nM.

In: Indicate its recorded apparent KD of MS2 coat protein; the sequence in question is AGUAUACAUUCUGAUACCAGAGACAUGAGGAUCACCCAUGUCCGAUCGUCCUGCCUCAGACUCCCUUGGCAGCAGGAUAUGUGCU [Exclusion Theophylline B GF5]
Out: 21.8

In: Please list apparent KD of MS2 coat protein recorded for the sequence UUAAUCUAUAAUGAAAACAUUAUAGCAGAAGGAGCGUGAUAAAACACAGGUAGGUCGCUGAAGGGAACAUGAGGAUCACCCAUGU [AstrosSSArgA#12]
Out: 40.5

In: # return recorded apparent KD of MS2 coat protein for entry AUAUGAAAGAGUGAUACCAGACUACAUGAGGAUCACCCAUGUGACAUUUAAAUAUCAUUUGUCCCUUGGCAGCACAUUAAGUACA [JR_Nu_ExcTheophyB_Sub021]
Out: 46.9

In: Quick one: give measured apparent KD of MS2 coat protein for UGAUCCUACAGAGAUACCAGUGCCGCUGAGUGACCAGACACAUGAGGAUCACCCAUGUAACACCCUUGGCAGCUCAACUAGAGGG [Same State Theophylline B GF19]
Out: 18.7

In: Provide measured apparent KD of MS2 coat protein value, entry: AGAUUCGACACGGCCGCCACUCUACACGGAUUUCCGAGUGUCGAACAUGAGGAUCACCCAUGUGGGAGGACCGGGUGUUGAGUCU [XTryp B #11]
Out: 704

In: Return the recorded apparent KD of MS2 coat protein value; entry: AGUGAUGACCGAAGGAGCGCGGGAAACAUGAGGAUCACCCAUGUACUCCUCAGUGUUAUAACGCAGGUAGGUCGCGGUUAUGGCU [X-ArgiB-ms2@26]
Out: 296
